Reported values of pIC50 for individual entries
biological target: BRD3 (His-Brd3(20-477)) (Homo sapiens (Human), UniProt Q15059)
Sequence (Q15059 20-477, species assumed): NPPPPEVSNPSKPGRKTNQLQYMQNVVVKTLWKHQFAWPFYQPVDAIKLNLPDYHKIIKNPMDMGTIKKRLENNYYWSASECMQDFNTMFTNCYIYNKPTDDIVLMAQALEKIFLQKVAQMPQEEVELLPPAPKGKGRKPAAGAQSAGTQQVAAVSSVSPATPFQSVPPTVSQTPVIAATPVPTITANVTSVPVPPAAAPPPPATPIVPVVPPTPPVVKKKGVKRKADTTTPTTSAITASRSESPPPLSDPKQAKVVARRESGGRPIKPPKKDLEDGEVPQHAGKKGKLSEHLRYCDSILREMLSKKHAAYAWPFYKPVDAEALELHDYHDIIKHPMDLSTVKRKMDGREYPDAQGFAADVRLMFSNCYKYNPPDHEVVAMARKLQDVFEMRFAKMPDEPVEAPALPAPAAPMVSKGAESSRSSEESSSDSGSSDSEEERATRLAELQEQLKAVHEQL
Please treat pIC50 as minus the base-10 logarithm of the molar concentration.

compound | pIC50
Cc1cc(N2C(=O)c3c(C4CC4)nn(-c4ccnn4C)c3[C@H]2c2ccc(Cl)cc2)cn(C)c1=O [Example 22] | 7.05

input: // fetch pIC50; item: COc1ncc(-n2nc(C)c3c2C(c2ccc(Cl)cc2)N(c2cc(C)c(=O)n(C)c2)C3=O)cn1 (stereo not shown) [Example 21a] ; system: BRD3 (His-Brd3(20-477)) (Homo sapiens (Human), UniProt Q15059)
output: 7.28

input: GET pIC50 where system = BRD3 (His-Brd3(20-477)) (Homo sapiens (Human), UniProt Q15059) and item = Cc1[nH]nc2c1C(=O)N(c1cc(C)c(=O)n(C)c1)[C@@H]2c1ccc(Cl)cc1 [Example 27]
output: 7.57

input: Would you please give the reported pIC50 of COc1ncc(-n2nc3c(c2C)C(=O)N(c2cc(C)c(=O)n(C)c2)C3c2ccc(Cl)cc2)cn1 (stereo not shown) [Example 21b] with BRD3 (His-Brd3(20-477)) (Homo sapiens (Human), UniProt Q15059)?
output: 7.03

input: Please report pIC50 with BRD3 (His-Brd3(20-477)) (Homo sapiens (Human), UniProt Q15059) for item COc1ccc(-n2nc(C)c3c2C(c2ccc(Cl)cc2)N(c2cc(C)c(=O)n(C)c2)C3=O)cn1 (stereo not shown) [Example 20b] .
output: 7.32

input: Tell me its pIC50 on BRD3 (His-Brd3(20-477)) (Homo sapiens (Human), UniProt Q15059): COc1ncc(-n2nc(C)c3c2C(c2ccc(Cl)cc2)N(c2cc(Cl)c(=O)n(C)c2)C3=O)cn1 (stereo not shown) [Example 8a]
output: 6.92

input: Tell me its pIC50 on BRD3 (His-Brd3(20-477)) (Homo sapiens (Human), UniProt Q15059): Cc1cc(N2C(=O)c3c(C4CC4)nn(CCO)c3C2c2ccc(Cl)cc2)cn(C)c1=O (stereo not shown) [Example 3]
output: 7.47

====

target: CREBBP bromodomain (His-CREBBP (1081-1197)) (Homo sapiens (Human)); experiment: AlphaScreen in-vitro binding assay for CREBBP; details: acetyl-histone H4 peptide
Sequence (Q92793 1081-1197): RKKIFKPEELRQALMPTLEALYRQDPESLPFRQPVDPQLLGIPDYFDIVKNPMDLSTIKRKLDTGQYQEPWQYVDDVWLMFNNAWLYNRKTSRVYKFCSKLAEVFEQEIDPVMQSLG
reported-endpoint: IC50 (nM)
Please respond with the number in nM and leave the unit unwritten.

compound | IC50, nM
Cc1[nH]nc2c1C(=O)N(c1cc(C)c(=O)n(C)c1)[C@@H]2c1ccc(Cl)cc1 | 1200

input: Read off the recorded IC50 for COc1ncccc1-n1nc2c(c1C)C(=O)N(c1cc(C)c(=O)n(C)c1)C2c1ccc(Cl)cc1 (stereo not shown) [Example 17b]
output: 1300

input: Give reported IC50 value for COc1ncccc1-n1nc(C)c2c1[C@@H](c1ccc(Cl)cc1)N(c1cc(C)c(=O)n(C)c1)C2=O
output: 2000

input: Dear colleague, please send me the reported IC50 for COc1ccc(-n2nc3c(c2C)C(=O)N(c2cc(C)c(=O)n(C)c2)C3c2ccc(Cl)cc2)cn1 (stereo not shown) [Example 20a] when you can.
output: 2000

====

# BRD2 (His-Brd2(60-472)) (Homo sapiens (Human)): pIC50 values follow
# Sequence (P25440 60-472, species assumed): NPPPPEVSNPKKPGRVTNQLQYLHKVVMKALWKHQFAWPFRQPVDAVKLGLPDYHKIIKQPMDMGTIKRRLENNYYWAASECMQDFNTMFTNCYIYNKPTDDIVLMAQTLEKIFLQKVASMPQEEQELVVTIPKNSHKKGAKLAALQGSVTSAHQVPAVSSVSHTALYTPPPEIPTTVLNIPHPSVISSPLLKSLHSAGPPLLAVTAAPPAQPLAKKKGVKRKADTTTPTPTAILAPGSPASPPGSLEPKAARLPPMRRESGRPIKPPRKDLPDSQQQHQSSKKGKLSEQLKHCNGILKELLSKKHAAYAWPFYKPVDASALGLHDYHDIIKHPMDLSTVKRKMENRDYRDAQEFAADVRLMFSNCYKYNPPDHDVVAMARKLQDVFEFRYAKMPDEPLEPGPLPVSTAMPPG
Scale for pIC50: -log10 of concentration given in mol/L; no unit attached.

Sample answers from the record:
compound | pIC50
Cc1[nH]nc2c1C(=O)N(c1cc(Cl)c(=O)n(C)c1)C2c1ccc(Cl)cc1 (centres unmarked) | 7.03
Cc1cc(N2C(=O)c3c(C4CC4)n[nH]c3[C@H]2c2ccc(Cl)cc2)cn(C)c1=O | 7.13
Cc1[nH]nc2c1C(=O)N(c1cc(Cl)c(=O)n(C)c1)[C@@H]2c1ccc(Cl)cc1 | 6.77
CCOc1ncccc1-n1nc2c(c1C)C(=O)N(c1cc(C)c(=O)n(C)c1)C2c1ccc(Cl)cc1 (centres unmarked) [Example 18b] | 7.46
COc1ncccc1-n1nc(C)c2c1[C@@H](c1ccc(Cl)cc1)N(c1cc(C)c(=O)n(C)c1)C2=O | 6.89
Cc1nn(C2CC2)c2c1C(=O)N(c1cc(C)c(=O)n(C)c1)C2c1ccc(Cl)cc1 (centres unmarked) | 7.42
COc1ncc(-n2nc3c(c2C)C(=O)N(c2cc(Cl)c(=O)n(C)c2)C3c2ccc(Cl)cc2)cn1 (centres unmarked) | 6.80

input: Report pIC50 for Cc1nn(-c2cccnc2F)c2c1C(=O)N(c1cc(C)c(=O)n(C)c1)C2c1ccc(Cl)cc1 (centres unmarked)
output: 7.10
